System: UO-31
Assay: NCI tumour cell line growth inhibition, 48 h
Activity calls are given as the source filed them. No stated cut-off is given here; in the data, active = GI50 up to about 1.1 µM and inactive = higher. Where a SMILES comes first, the peptide text is derived from it. [ ]: non-standard residue; d: D form. The star is where a group is joined. ξ: configuration not given here. ξD = NC(CC(=O)O)C(=O)O; Boc = CC(C)(C)OC(=O)*; Aib = CC(C)(N)C(=O)O; OBn = c1ccc(CO*)cc1
Parameter measured: GI50

The following compounds have reported results that may help.
CSCCCS/C1=C/CCCCCCCCCC1
> 100 µM (inactive)
Cc1cnc(NCCCN(C)C)c2c1[nH]c1ccc3cc(O)ccc3c12
2.03 µM (inactive)
CC(C)(C)OC(=O)NC(CC(=O)OCc1ccccc1)C(=O)NC(C)(C)C(N)=O (stereo not given) (Boc-[ξD](OBn)-[Aib]-NH2)
> 100 µM (inactive)
Cc1ccc(NC(=O)CC(=O)N2N=C(c3ccccc3)C(/N=N/c3ccc(S(=O)(=O)CCOS(=O)(=O)O)cc3)C2=O)cc1 (stereo not given)
> 100 µM (inactive)
Clc1nc(Cl)nc(Nc2cccc3ccccc23)n1
> 10 µM (inactive)
Cc1c2cc[n+](C)c(C)c2cc2c1[nH]c1ccccc12
67.6 µM (inactive)
CC(c1ccccc1)n1c2ccccc2c2c(N)ncnc21 (stereo not given)
9.16 µM (inactive)
COc1c(C(=O)/C(=N/Nc2ccc(C(=O)O)cc2)C(C)=O)c(O)cc2occc12
> 100 µM (inactive)

GI50 measured on C/C=C(\C)c1cc(=O)c2c(C)cc3c(c2o1)C(OC)(OC(C)=O)c1c(O)c(C2CC(C)(N(C)C)C(OC(C)=O)C(C)O2)cc(C2CC(N(C)C)C(OC(C)=O)C(C)O2)c1C3=O (stereo not given) = 1.57 µM (inactive)

GI50 measured on O=P(Nc1ccccc1)(Oc1ccccc1)N1CCN(c2ccccc2)CC1 (stereo not given) = 14.9 µM (inactive)

###

// GI50 lookup, one value per entry
Tested on: Malme-3M
Test: NCI tumour cell line growth inhibition, 48 h
Calls of active or inactive are those of the source. Rule as the data show it: active = GI50 up to about 1.1 µM and inactive = higher.

OC1(c2ccc3ccccc3c2)c2c(c3ccccc3c3ccccc23)C2=NCCN21 (stereo unspecified)
10.4 µM (inactive)
Clc1ccc(Cl)c(/N=N\c2cc3c4c(c2)CCN4CCC3)c1
> 10 µM (inactive)
COc1ccc2c(c1)C1(C=N2)CCN(C(C)=O)CC1
> 100 µM (inactive)
CC(=O)Oc1ccc2c(C)cc(=O)oc2c1OC(C)=O
17.6 µM (inactive)
Nc1nc(N)c2c(n1)NC(=O)c1c(c3ccccc3n1Cc1ccc(Cl)cc1)C2
55.3 µM (inactive)

The record that follows has no GI50 shown yet.
GI50 measured on CCOC(=O)CNC1C(NC(C)=O)C(OC)OC2COC(c3ccccc3)OC21 (stereo unspecified) = > 100 µM (inactive)

###

// GI50 lookup, one value per entry
System: U-251
Experiment: NCI tumour cell line growth inhibition, 48 h
Active and inactive are the calls of the source. Rule as the data show it: active = GI50 up to about 1.1 µM and inactive = higher.

GI50 measured on CC(=O)Nc1ccc(NCC(=O)Nn2cnc3ccc(S(=O)(=O)Nc4ccc(NC(C)=O)cc4)cc3c2=O)cc1 = > 100 µM (inactive)

GI50 measured on CC(C)(C)n1c(=O)n(-c2ccccc2)n(C(C)(C)C)c1=O = > 100 µM (inactive)

GI50 measured on COc1ccc(NCc2c(O)ccc3ccccc23)cc1 = 28.3 µM (inactive)

GI50 measured on OC1(c2ccccc2)C2CCN(CC2)C1CN1CCOCC1 (configuration not stated) = > 100 µM (inactive)

GI50 measured on COc1ccc(/N=N/C(=O)NC(CC(C)C)C(=O)NC(Cc2ccccc2)C(=O)O)cc1 (configuration not stated) = > 100 µM (inactive)

GI50 measured on COC(=O)C(Cc1ccc(Oc2cc(CC(NC(=O)c3ccccc3)C(=O)OC)ccc2OC)cc1)NC(=O)c1ccccc1 (configuration not stated) = 32.8 µM (inactive)

GI50 measured on CC(=O)C(O)N1C(=O)C=CC1=O (configuration not stated) = 17.4 µM (inactive)
